Hey, just so you know, these numbers are from ChEMBL document CHEMBL1201862.

system: P388/ADR; assay: cells; format: functional; conditions: Mus musculus
Activity calls are given as the source filed them. No stated cut-off is given here; in the data, active = GI50 up to about 1.1 µM and inactive = higher. Where a SMILES comes first, the peptide text is derived from it. Square brackets hold non-standard residues; d marks the D form. Peptide text beside a SMILES is read from it.
Result category, one only: t = active, f = inactive

// known answers, use as guide
CCS(=O)(=O)Nc1ccc(Nc2c3ccccc3nc3ccccc23)c(OC)c1 :: t
O=C(CCN1CCOCC1)C(=Cc1ccccc1)C(=O)CCN1CCOCC1 :: t
CC(C)C[C@H](NC(=O)[C@H](CC(C)C)NC(=O)[C@@H](Cc1c[nH]c2ccccc12)NC(=O)[C@H](Cc1ccccc1)NC(=O)[C@@H](Cc1c[nH]c2ccccc12)NC(=O)[C@H](CCC(N)=O)NC(=O)[C@@H](CCC(N)=O)NC(=O)[C@@H]1CCCN1C(=O)[C@@H](CCCCN)NC(=O)[C@H]1CCCN1C(=O)[C@H](N)CCCN=C(N)N)C(N)=O (H-[dR][dP][dK]P[dQ]Q[dW]F[dW]LL-NH2) :: f
CC1NC(=O)CNC(=O)CNC(=O)C(Cc2ccc(O)cc2)NC(=O)C(C(C)C)NC(=O)C(C)NC1=O (stereo not given) (cyclo(GGAAVY); configuration not given here) :: f

Tell me the assay call for Cc1cc(/N=N/c2ccc(/N=N/c3c(O)c(S(=O)(=O)O)cc4cc(S(=O)(=O)O)ccc34)cc2C)ccc1/N=N/c1ccc2cc(S(=O)(=O)O)cc(S(=O)(=O)O)c2c1 please.
f
